# IC50 per record follows
- Measurement target: NRAS Q61K (Homo sapiens (Human), UniProt P01111+P62937, Q61K)
- Sequence (P01111 whole entry Q61K, one chain of several): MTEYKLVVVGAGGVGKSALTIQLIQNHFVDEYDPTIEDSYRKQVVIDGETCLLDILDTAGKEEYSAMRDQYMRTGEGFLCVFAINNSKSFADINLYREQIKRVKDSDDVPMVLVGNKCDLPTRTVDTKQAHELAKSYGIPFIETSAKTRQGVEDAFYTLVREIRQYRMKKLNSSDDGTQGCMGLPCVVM
- Experiment description: Ras-Raf (BRAF RBD) disruption / FRET / MOA assay, NRAS Q61K
- Type: biochemical
- Experimental setup: NRAS Q61K; Ras-Raf disruption/FRET/MOA assay; read-out: IC50* NRAS Q61K FRET data

Compound: CCn1c(-c2cccnc2[C@H](C)OC)c2c3cc(ccc31)-c1csc(n1)C[C@H](NC(=O)[C@H](C(C)C)N(C)C(=O)N1CCN(C(=O)/C=C/CN(C)C)C[C@@H]1C)C(=O)N1CCC[C@H](N1)C(=O)OCC(C)(C)C2 (atropisomer, axis not shown)
Measurement target: NRAS Q61K (Homo sapiens (Human), UniProt P01111+P62937, Q61K)
IC50: 10 to 100 nM

Next compound, IC50 to be filled in.
Any idea what its IC50 is? The compound is C=CC(=O)N1CCC(F)(C(=O)N(C)[C@H](C(=O)N[C@H]2C[C@H]3CN(CCO3)c3ccc4c(c3)c(c(-c3cccnc3[C@H](C)OC)n4CC)CC(C)(C)COC(=O)[C@@H]3CCCN(N3)C2=O)C(C)C)CC1 (atropisomer, axis not shown)
1000 to 10000 nM

###

- Measurement target: NRAS G12C (Homo sapiens (Human), UniProt P01111+P62937, G12C)
- Sequence (P01111 whole entry G12C, one chain of several): as the sequence (P01111 whole entry Q61K, one chain of several) above, with G12C, K61Q counted along it
- Experiment description: Ras-Raf (BRAF RBD) disruption / FRET / MOA assay, NRAS G12C
- Type: biochemical
- Experimental setup: read-out: IC50* NRAS G12C FRET data
pIC50: −log10 of the molar value.
pIC50 values for the compounds below.

Consider the worked cases shown below.
Compound: C=C(F)C(=O)N1CC2(CCN(C(=O)N(C)[C@H](C(=O)N[C@H]3Cc4nc(cs4)-c4ccc5c(c4)c(c(-c4cccnc4[C@H](C)OC)n5CC)CC(C)(C)COC(=O)[C@@H]4CCCN(N4)C3=O)C(C)C)CC2)C1 (atropisomer, axis not shown)
pIC50: 7.00 to 8.00

Compound: CCn1c(-c2cccnc2[C@H](C)OC)c2c3cc(ccc31)-c1csc(n1)C[C@H](NC(=O)[C@H](C(C)C)N(C)C(=O)N1CCC3(CC1)CN(C(=O)/C=C/CN1CCCCC1)C3)C(=O)N1CCC[C@H](N1)C(=O)OCC(C)(C)C2 (atropisomer, axis not shown)
pIC50: 6.00 to 7.00

Compound: C=CC(=O)N1CC(N2CCN(C(=O)N(C)[C@H](C(=O)N[C@H]3Cc4nc(cs4)-c4ccc5c(c4)c(c(-c4cccnc4[C@H](C)OC)n5CC)CC(C)(C)COC(=O)[C@@H]4CCCN(N4)C3=O)C(C)C)CC2)C1 (atropisomer, axis not shown)
pIC50: 7.00 to 8.00

Consider the record given below.
Fill in the blank: the reported pIC50 of CO[C@@H](COC1CN(C(=O)C#CC(C)(C)N(C)C)C1)C(=O)N[C@H]1Cc2coc(n2)-c2ccc3c(c2)c(c(-c2cccnc2[C@H](C)OC)n3CC(F)(F)F)CC(C)(C)COC(=O)[C@@H]2CCCN(N2)C1=O (atropisomer, axis not shown) is ____.
> 8.00

###

Recorded pIC50 for the following compounds
- Measurement target: KRAS G12D (Homo sapiens (Human), UniProt P01116+P62937, G12D)
- Sequence (P01116-2 other isoform, or with tags, fused parts or gaps G12D): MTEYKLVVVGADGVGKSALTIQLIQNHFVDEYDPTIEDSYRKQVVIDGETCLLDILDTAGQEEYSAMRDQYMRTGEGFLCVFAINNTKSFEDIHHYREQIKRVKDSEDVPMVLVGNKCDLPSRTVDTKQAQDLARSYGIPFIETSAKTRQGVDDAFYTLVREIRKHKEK
- Sequence (P62937 whole entry): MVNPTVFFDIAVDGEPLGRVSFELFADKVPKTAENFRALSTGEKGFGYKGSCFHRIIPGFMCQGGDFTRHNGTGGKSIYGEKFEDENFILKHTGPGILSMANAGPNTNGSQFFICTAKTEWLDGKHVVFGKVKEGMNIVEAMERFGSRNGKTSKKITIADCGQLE
- Experiment description: Ras-Raf (BRAF RBD) disruption / FRET / MOA assay, KRAS G12D
- Format: biochemical
- Experimental setup: Ras-Raf disruption/FRET/MOA assay; class symbols; read-out: KRAS G12D FRET data IC50
pIC50: −log10 of the molar value.

Take a look at these entries with their results.
Compound: C=CC(=O)N1CC[C@@H](C(=O)N(C)[C@H](C(=O)N[C@H]2Cc3cccc(c3)-c3ccc4c(c3)c(c(-c3cccnc3[C@H](C)OC)n4CC)CC(C)(C)COC(=O)[C@@H]3CCCN(N3)C2=O)C(C)C)C1 (atropisomer, axis not shown)
pIC50: 5.00 to 6.00
--
Compound: C=CC(=O)N1C[C@H](C)[C@H](C(=O)N(C)[C@H](C(=O)N[C@H]2Cc3cc(O)cc(c3)-c3ccc4c(c3)c(c(-c3ccccc3CN(C)C)n4CC)CC(C)(C)COC(=O)[C@@H]3CCCN(N3)C2=O)C2CCCC2)C1
pIC50: 5.00 to 6.00
--
Compound: C=CC(=O)N1CCO[C@H]2CCN(C(=O)N(C)[C@H](C(=O)N[C@H]3Cc4nc(cs4)-c4ccc5c(c4)c(c(-c4cccnc4[C@H](C)OC)n5CC)CC(C)(C)COC(=O)[C@@H]4CCCN(N4)C3=O)C(C)C)C[C@@H]21 (atropisomer, axis not shown)
pIC50: 6.00 to 7.00
--
Compound: C=CC(=O)N1CCC(C(=O)N(C)[C@H](C(=O)N[C@H]2Cc3cc(O)cc(c3)-c3ccc4c(c3)c(c(-c3ccccc3CCOC)n4CC)CC(C)(C)COC(=O)[C@@H]3CCCN(N3)C2=O)C(C)C)CC1
pIC50: < 5.00
--
Compound: C=CC(=O)N1CC[C@H](C(=O)N(C)[C@H](C(=O)N[C@H]2Cc3cc(O)cc(c3)-c3ccc4c(c3)c(c(-c3cnccc3[C@H](C)OC)n4CC)CC(C)(C)COC(=O)[C@@H]3CCCN(N3)C2=O)C(C)C)C1 [Example A076]
pIC50: 6.00 to 7.00

Please look at the following compound next.
Any idea what pIC50 was measured for C=CC(=O)N1CCN(C(=O)N(C)[C@H](C(=O)N[C@H]2Cc3nc(cs3)-c3ccc4c(c3)c(c(-c3cccnc3[C@H](C)OC)n4CC)CC(C)(C)COC(=O)[C@@H]3CCCN(N3)C2=O)C(C)C)CC12CC2 (atropisomer, axis not shown) ?
6.00 to 7.00
